tested on: E. coli TESEC Alr+ wild-type control; assay: growth (OD600 after 10 h); higher = more growth (less inhibition); settings: compound 0.1 mM; raw OD600 reference: median of DMSO wells 0.49, cell-free background 0.052
Structures can show the parent of a compound that is named as a salt.
MEASUREMENT_TYPE: growth
Answer with a bare number; do not write a unit.

Fill in growth for record CCOC(=O)[C@H](CCc1ccccc1)N[C@H]1CCc2ccccc2N(CC(=O)O)C1=O [Benazepril HCl]
0.559

Give the measured growth for `Cc1onc(-c2ccccc2)c1-c1ccc(S(N)(=O)=O)cc1`
0.388

Output growth of `C[C@]12CC[C@@H]3c4ccc(O)cc4CC[C@H]3[C@@H]1CC[C@@H]2O`
0.43
